System: factor Xa
Assay: Plasma anti-factor Xa activity, rabbit wound-limb deep venous thrombosis forming model
Assay type: in vivo
Details: plasma, 5 mg/kg i.g., 3 h after administration, x ± SD
EXPERIMENTAL_READOUT: anti-factor Xa activity (IU/ml)
Give bare numbers, in IU/ml.

# MOLECULE, TARGET_UNDER_TEST, anti-factor Xa activity [IU/ml]
measured = [
    ("CC1C(=O)OC2C(O)C34C5CC(C(C)(C)C)C36C(OC(=O)C6O)OC4(C(=O)O5)C12O (stereo not shown) [Ginkgolide B]", "factor Xa", 0.74),
    ("O=C(NC[C@H]1CN(c2ccc(N3CCOCC3=O)cc2)C(=O)O1)c1ccc(Cl)s1 [Rivaroxaban]", "factor Xa", 1.32),
    ("CN(C)Cc1nccn1-c1ccc(NC(=O)c2cc(C(F)(F)F)nn2-c2ccc3onc(N)c3c2)c(F)c1 [Razaxaban]", "factor Xa", 1.31),
]

Exam item: Any idea what its anti-factor Xa activity is? The molecule is COc1ccc(-n2nc(C(N)=O)c3c2C(=O)N(c2ccc(N4CCCCC4=O)cc2)CC3)cc1 [Apixaban]
Marked response: 1.22

Cited source for all entries: patent US10058533B2
